Values compiled from ChEMBL document CHEMBL3301361.

Let's look at some compounds and their measured logD.
# measurement notes: physchem
# details: octan-1-ol/water, pH 7.4, LogD7.4
Answer with the value's number alone.

Solved cases (4 shown):
# compound, logD
measured = [
    ("COc1cc2nnc(C(N)=O)c(Nc3cccc(Cl)c3F)c2cc1N1CCN(C)CC1", 2.35),
    ("COc1ccnc(CSc2nc3ccccc3[nH]2)c1", 2.89),
    ("Nc1nnc(CCSCCc2nnc(N)s2)s1", -0.1),
    ("O=C(NC[C@@H](O)CN1CCC(Oc2ccc(Cl)c(Cl)c2)CC1)c1cnnc2ccccc12", 3.28),
]

Prompt: Name the recorded logD of the compound listed here: Cc1cccc(Br)c1C(=O)N[C@@H](Cc1ccc(NC(=O)c2c(Cl)cccc2Cl)cc1)C(=O)O
Response: -0.13

Prompt: Name the recorded logD of the compound listed here: NS(=O)(=O)c1cc(Cl)c(Cl)c(S(N)(=O)=O)c1 [DICHLORPHENAMIDE]
Response: 0.92

Prompt: Name the recorded logD of the compound listed here: COc1cc2c(cc1-c1c(C)noc1C)ncc1[nH]c(=O)n([C@H](C)c3ccccn3)c12
Response: 3.15

Prompt: Name the recorded logD of the compound listed here: C[C@H](CO)Nc1nc(SCc2ccccc2F)nc2nc(N)sc12
Response: 3.12

Prompt: Name the recorded logD of the compound listed here: CCN(C(=O)Nc1ccccc1)c1ccccc1
Response: 3.1

Prompt: Name the recorded logD of the compound listed here: COC(=O)C1=C(C)NC(C)=C(C(=O)OCC(C)C)C1c1ccccc1[N+](=O)[O-] (stereo not given) [NISOLDIPINE]
Response: 3.59

* * *

# measurement notes: physchem
# details: octan-1-ol/water, pH 7.4, LogD7.4
measurement label: logD
Answer with the value's number alone.

Solved cases (4 shown):
# molecule, logD
rows = [
    ("N#Cc1cnn2c(N)cc(-c3ccccc3)nc12", 2.48),
    ("N#Cc1ccc2c(c1)NC(=O)C2c1ncnc2cc(OCCCN3CCOCC3)ccc12 (configuration not stated)", 2.99),
    ("NC1CCN(c2nccc(C(=O)NCC34CC5CC(CC(C5)C3)C4)c2Cl)CC1", 1.19),
    ("CC(C)Oc1ccc2c(=O)c(-c3ccccc3)coc2c1", 4.07),
]

Query molecule follows.
Prompt: Name the recorded logD of the molecule listed here: Cn1c(=O)c(Oc2ccc(F)cc2F)cc2cnc(NC(CCO)CCO)nc21
Response: 1.5

* * *

# measurement notes: in vitro
# details: human, microsomes
measurement label: microsomal CLint (µL/min/mg)
Unit µL/min/mg implied. Number only.

Solved cases (4 shown):
# compound, value units, result
data = [
    ("Cc1cccc(Nc2ccccc2C(=O)O)c1C", "µL/min/mg", 9),
    ("O=C1COc2c(CCNCCN(C(=O)CCNCCc3ccc(Cl)c(Cl)c3)C3CCCCC3)ccc(O)c2N1", "µL/min/mg", 38),
    ("Cc1cc(OCC(=O)Nc2ccccc2)c2cc(Br)ccc2n1", "µL/min/mg", 123),
    ("COCCC(C)n1nc(C)c(C(=O)N[C@@H](C)C(C)(C)C)c1NS(=O)(=O)c1ccc(C)cc1 (stereo not given in full)", "µL/min/mg", 3.9),
]

Prompt: Name the recorded microsomal CLint of the compound listed here: COc1ccccc1OCCNCC(O)COc1cccc2[nH]c3ccccc3c12 (stereo not given)
Response: 41.7

Prompt: Name the recorded microsomal CLint of the compound listed here: COc1ccc(C(=O)NCCN2CCN(Cc3ccc(Cl)c(Cl)c3)CC2)cc1Cl
Response: 50.5

Prompt: Name the recorded microsomal CLint of the compound listed here: N#Cc1c(-c2ccccc2)nc(SCc2ccccc2)[nH]c1=O
Response: 6
